Entry source: patent US6841530B2

- Tested on: HSV
- assay: Antiviral activities of didemnins, HSV/CV-1
- Type: cell-based
- Set-up: key: +++ = complete inhibition; ++ = strong inhibition; + = moderate inhibition; − = no inhibition
- condition-summary: 10 ng/mL
Starred links: 1 amine or outer side, 2 acyl side, 3 side chain; linkers in the order of their positions; H or OH if unused. Positions of bridges follow the written chain, without caps; N, C: chain ends. Non-standard residues stand in square brackets, D forms with d. Residues, ends and D or L forms follow the SMILES beside them. *: point of attachment. X1 = CC[C@H](C)[C@@H](N[*:1])[C@@H](O)CC(=O)O[C@H](C(=O)[C@H](C)C(=O)[*:2])C(C)C; NMeY = CN[C@@H](Cc1ccc(O)cc1)C(=O)O; dNMeL = CN[C@H](CC(C)C)C(=O)O; pGlu = O=C1CC[C@@H](C(=O)O)N1; Pyruvoyl = CC(=O)C(=O)*; Cbz = O=C(OCc1ccccc1)*; Lac = C[C@H](O)C(=O)O
metric: Activity

Worked cases, Activity given:
molecule	Activity
CC[C@H](C)[C@H]1NC(=O)[C@@H](NC(=O)[C@@H](CC(C)C)N(C)C(=O)[C@@H]2CCCN2C(=O)[C@H](C)OC(=O)[C@H](CCC(N)=O)NC(=O)OCc2ccccc2)[C@@H](C)OC(=O)[C@H](Cc2ccc(OC)cc2)N(C)C(=O)[C@@H]2CCCN2C(=O)[C@H](CC(C)C)NC(=O)[C@@H](C)C(=O)[C@H](C(C)C)OC(=O)C[C@@H]1O [Cbz-Gln-Didemnin B (161)] (Cbz-Q[Lac]P[dNMeL]T[X1]LP[NMeY](Me); ester 5-C)	−
CC[C@H](C)[C@H]1NC(=O)[C@@H](NC(=O)[C@@H](CC(C)C)N(C)C(=O)[C@@H]2CCCN2C(=O)[C@H](C)OC(=O)[C@H](CCC(N)=O)NC(=O)OCc2ccccc2)[C@@H](C)OC(=O)[C@H](Cc2ccc(OC)cc2)N(C)C(=O)[C@@H]2CCCN2C(=O)[C@H](CC(C)C)NC(=O)[C@@H](C)C(=O)[C@H](C(C)C)OC(=O)C[C@@H]1OC(=O)[C@H](CCC(N)=O)NC(=O)OCc1ccccc1 [Cbz-Gln[Cbz-GlnIst^2]DB (162)]	+
CC[C@H](C)[C@H]1NC(=O)[C@@H](NC(=O)[C@@H](CC(C)C)NC)[C@@H](C)OC(=O)[C@H](Cc2ccc(OC)cc2)N(C)C(=O)[C@@H]2CCCN2C(=O)[C@H](CC(C)C)NC(=O)[C@@H](C)C(=O)[C@H](C(C)C)OC(=O)C[C@@H]1O [Didemnin A (1), Didemnin A] (H-[dNMeL]T[X1]LP[NMeY](Me); ester 2-C)	−
CC[C@H](C)[C@H]1NC(=O)[C@@H](NC(=O)[C@@H](CC(C)C)N(C)C(=O)[C@@H]2CCCN2C(=O)[C@H](C)OC(=O)[C@@H](N)CCC(N)=O)[C@@H](C)OC(=O)[C@H](Cc2ccc(OC)cc2)N(C)C(=O)[C@@H]2CCCN2C(=O)[C@H](CC(C)C)NC(=O)[C@@H](C)C(=O)[C@H](C(C)C)OC(=O)C[C@@H]1O [Gln-Didemnin B, Glutaminyl-didemnin B] (H-Q[Lac]P[dNMeL]T[X1]LP[NMeY](Me); ester 5-C)	+++
CC[C@H](C)[C@H]1NC(=O)[C@@H](NC(=O)[C@@H](CC(C)C)N(C)C(=O)[C@@H]2CCCN2C(=O)[C@H](C)OC(=O)[C@H](CCC(N)=O)NC(=O)[C@@H]2CCC(=O)N2)[C@@H](C)OC(=O)[C@H](Cc2ccc(OC)cc2)N(C)C(=O)[C@@H]2CCCN2C(=O)[C@H](CC(C)C)NC(=O)[C@@H](C)C(=O)[C@H](C(C)C)OC(=O)C[C@@H]1O [Didemnin M (5), L-Pyroglutaminyl-L-glutaminyl-didemnin B] ([pGlu]Q[Lac]P[dNMeL]T[X1]LP[NMeY](Me); ester 6-C)	+
CC[C@H](C)[C@H]1NC(=O)[C@@H](NC(=O)[C@@H](CC(C)C)N(C)C(=O)[C@@H]2CCCN2C(=O)C(C)O)[C@@H](C)OC(=O)[C@H](Cc2ccc(OC)cc2)N(C)C(=O)[C@@H]2CCCN2C(=O)[C@H](CC(C)C)NC(=O)[C@@H](C)C(=O)[C@H](C(C)C)OC(=O)C[C@@H]1O (stereo partly shown) [Didemnin (B) (2), Didemnin B, reference compound]	+

Next up:
In plain terms, CC[C@H](C)[C@H]1NC(=O)[C@@H](NC(=O)[C@@H](CC(C)C)N(C)C(=O)[C@@H]2CCCN2C(=O)C(C)=O)[C@@H](C)OC(=O)[C@H](Cc2ccc(OC)cc2)N(C)C(=O)[C@@H]2CCCN2C(=O)[C@H](CC(C)C)NC(=O)[C@@H](C)C(=O)[C@H](C(C)C)OC(=O)C[C@@H]1O [Dehydrodidemnin B (6), Dehydrodidemnin B] (Pyruvoyl-P[dNMeL]T[X1]LP[NMeY](Me); ester 3-C) has a documented Activity of +
